# ASSAY_NAME: Measurement of Δλmax (UV-Vis absorption spectra in 20.0% 1,2-hexanediol aqueous solution and in water)
# Assay type: physicochemical
# SETUP_CONDITIONS: maximum absorption wavelength in ion-exchange water; coloring material 0.002 to 0.005%
MEASUREMENT_KIND: λmaxW
Write the figure, then the unit, nothing else.

Suppose we examine the molecule Cc1ccc(S(=O)(=O)Nc2cc(S(=O)(=O)[O-])cc3cc(S(=O)(=O)[O-])c(N=Nc4cc(Cl)ccc4Oc4ccccc4)c(O)c23)cc1.[Na+].[Na+] ; what λmaxW value has been reported?
524.0 nm

Suppose we examine the molecule CC(C)(C)c1nn(-c2cc(C(=O)O)cc(C(=O)O)c2)c(N)c1N=Nc1nnc(SCCSc2nnc(N=Nc3c(C(C)(C)C)nn(-c4cc(C(=O)O)cc(C(=O)O)c4)c3N)s2)s1 ; what λmaxW value has been reported?
427.5 nm

Suppose we examine the molecule Nc1cc2c(O)c(N=Nc3ccc(N=Nc4ccc(S(=O)(=O)[O-])cc4)c4ccc(S(=O)(=O)[O-])cc34)c(S(=O)(=O)[O-])cc2cc1S(=O)(=O)[O-].[Na+].[Na+].[Na+].[Na+] ; what λmaxW value has been reported?
585.5 nm

Suppose we examine the molecule Cc1c(C#N)c(Nc2ccc(S(=O)(=O)O)cc2)nc(Nc2ccc(S(=O)(=O)O)cc2)c1N=Nc1nc(-c2ccc3ccccc3c2)c(N=Nc2cc(S(=O)(=O)O)c3cc(S(=O)(=O)O)cc(S(=O)(=O)O)c3c2)s1 ; what λmaxW value has been reported?
604.0 nm

Suppose we examine the molecule Cc1c(C#N)c(Nc2ccc(S(=O)(=O)O)cc2)nc(Nc2ccc(S(=O)(=O)O)cc2)c1N=Nc1sc(N=Nc2ccccc2C#N)c(-c2ccc(Nc3nc(NCCS(=O)(=O)O)nc(Nc4cc(S(=O)(=O)O)ccc4S(=O)(=O)O)n3)cc2)c1C#N ; what λmaxW value has been reported?
605.5 nm

Suppose we examine the molecule Cn1c(=O)c(C(=O)c2cccc(S(=O)(=O)O)c2)c2c3c(c(Nc4cc(Nc5nc(NCCNc6nc(Nc7cc(Nc8ccc9c%10c8C(=O)c8ccccc8-c%10c(C(=O)c8cccc(S(=O)(=O)O)c8)c(=O)n9C)c(S(=O)(=O)O)cc7S(=O)(=O)O)nc(Oc7ccc(S(=O)(=O)O)cc7)n6)nc(Oc6ccc(S(=O)(=O)O)cc6)n5)c(S(=O)(=O)O)cc4S(=O)(=O)O)ccc31)C(=O)c1ccccc1-2 ; what λmaxW value has been reported?
508.5 nm

###

# ASSAY_NAME: Measurement of Δλmax (UV-Vis absorption spectra in 20.0% 1,2-hexanediol aqueous solution and in water)
# Format: physicochemical
# SETUP_CONDITIONS: λmaxD−λmaxW
# Description: Specifically, the ink according to the present invention contains a first coloring material and a second coloring material satisfying the following conditions. […] Further, the sum of the Δλmax1 and the Δλmax2 needs to be 35.0 or less. λmax refers to a maximum absorption wavelength in the visible region (380 to 750 nm) in a UV-Vis absorption spectrum of a coloring material, and can be measured using a spectrophotometer. […]
MEASUREMENT_KIND: Δλmax
Write the figure, then the unit, nothing else.

Suppose we examine the molecule Cc1c(C#N)c(Nc2ccc(S(=O)(=O)O)cc2)nc(Nc2ccc(S(=O)(=O)O)cc2)c1N=Nc1sc(N=Nc2ccccc2C#N)c(-c2ccc(Nc3nc(NCCS(=O)(=O)O)nc(Nc4cc(S(=O)(=O)O)ccc4S(=O)(=O)O)n3)cc2)c1C#N ; what Δλmax value has been reported?
25.0 nm

Suppose we examine the molecule Nc1cc2c(O)c(N=Nc3ccc(N=Nc4ccc(S(=O)(=O)[O-])cc4)c4ccc(S(=O)(=O)[O-])cc34)c(S(=O)(=O)[O-])cc2cc1S(=O)(=O)[O-].[Na+].[Na+].[Na+].[Na+] ; what Δλmax value has been reported?
9.5 nm

Suppose we examine the molecule COc1cc(N=Nc2cccc(S(=O)(=O)O)c2)ccc1Nc1nc(NCCS(=O)(=O)O)nc(Nc2ccc(N=Nc3cccc(S(=O)(=O)O)c3)cc2OCCCS(=O)(=O)O)n1 ; what Δλmax value has been reported?
−9.5 nm

Suppose we examine the molecule Cc1ccc(S(=O)(=O)Nc2cc(S(=O)(=O)[O-])cc3cc(S(=O)(=O)[O-])c(N=Nc4cc(Cl)ccc4Oc4ccccc4)c(O)c23)cc1.[Na+].[Na+] ; what Δλmax value has been reported?
−4.0 nm

Suppose we examine the molecule O=C(O)c1nn(-c2ccc(S(=O)(=O)O)cc2)c(O)c1N=Nc1ccc(S(=O)(=O)O)cc1 ; what Δλmax value has been reported?
3.5 nm

Suppose we examine the molecule Cn1c(=O)c(C(=O)c2cccc(S(=O)(=O)O)c2)c2c3c(c(Nc4cc(Nc5nc(NCCNc6nc(Nc7cc(Nc8ccc9c%10c8C(=O)c8ccccc8-c%10c(C(=O)c8cccc(S(=O)(=O)O)c8)c(=O)n9C)c(S(=O)(=O)O)cc7S(=O)(=O)O)nc(Oc7ccc(S(=O)(=O)O)cc7)n6)nc(Oc6ccc(S(=O)(=O)O)cc6)n5)c(S(=O)(=O)O)cc4S(=O)(=O)O)ccc31)C(=O)c1ccccc1-2 ; what Δλmax value has been reported?
3.5 nm

Suppose we examine the molecule CC(C)(C)c1nn(-c2cc(C(=O)O)cc(C(=O)O)c2)c(N)c1N=Nc1nnc(SCCSc2nnc(N=Nc3c(C(C)(C)C)nn(-c4cc(C(=O)O)cc(C(=O)O)c4)c3N)s2)s1 ; what Δλmax value has been reported?
24.0 nm

Suppose we examine the molecule COc1cc(N=Nc2cccc(S(=O)(=O)O)c2)ccc1NC(=O)Nc1ccc(N=Nc2cccc(S(=O)(=O)O)c2)cc1OC ; what Δλmax value has been reported?
5.5 nm

Suppose we examine the molecule Cc1c(C#N)c(Nc2ccc(S(=O)(=O)O)cc2)nc(Nc2ccc(S(=O)(=O)O)cc2)c1N=Nc1nc(-c2ccc3ccccc3c2)c(N=Nc2cc(S(=O)(=O)O)c3cc(S(=O)(=O)O)cc(S(=O)(=O)O)c3c2)s1 ; what Δλmax value has been reported?
0.0 nm

Suppose we examine the molecule Cc1cc(Nc2nc(NCCS(=O)(=O)O)nc(Nc3ccc(N=Nc4ccc(N=Nc5ccc(S(=O)(=O)O)cc5)cc4S(=O)(=O)O)c(C)c3)n2)ccc1N=Nc1ccc(N=Nc2ccc(S(=O)(=O)O)cc2)cc1S(=O)(=O)O ; what Δλmax value has been reported?
−9.0 nm

Suppose we examine the molecule CCc1cc(C)c(S(=O)(=O)O)c(CC)c1Nc1nc(N(c2nc3ccc(S(=O)(=O)O)cc3s2)c2c(CC)cc(C)c(S(=O)(=O)O)c2CC)cc(C)c1N=Nc1c(C#N)c(C(C)(C)C)nn1-c1nc2ccc(S(=O)(=O)O)cc2s1 ; what Δλmax value has been reported?
4.5 nm
